Provide the recorded EC90 for the entries that follow.
Tested on: Yellow fever virus
PROCEDURE SUMMARY: Antiviral activity against Yellow fever virus 17D infected in African green monkey Vero assessed as reduction in virus yield preincubated with compound for 5 mins followed by viral infection and measured at 72 to 120 hrs
Format: functional
CONDITION SET: time 4325-7205 min
Give just the number in µg/mL; leave the unit off.

Briefly, EC90 measured for COc1ccccc1Nc1nnc(Cc2ccc(C)cc2)c(=O)[nH]1 : 50

Briefly, EC90 measured for Cc1ccc(Cc2nnc(Nc3cccc(C)c3)[nH]c2=O)cc1 : 158

Briefly, EC90 measured for COc1ccc(Nc2nnc(Cc3ccc(C)cc3)c(=O)[nH]2)c(OC)c1 : 28

Briefly, EC90 measured for Cc1ccc(Cc2nnc(Nc3cccc(F)c3)[nH]c2=O)cc1 : 65

* * *

Test system: Yellow fever virus
PROCEDURE SUMMARY: Antiviral activity against Yellow fever virus infected in human A549 cells assessed as reduction in virus replication
Type: functional, organism-based
TEST READOUT: EC50 (nM)
Give just the number in nM; leave the unit off.

Briefly, EC50 measured for O=C1OC2(c3ccccc31)c1cc(I)c(O)c(I)c1Oc1c2cc(I)c(O)c1I : 570

* * *

Test system: Yellow fever virus
PROCEDURE SUMMARY: Antiviral activity against Yellow fever virus assessed as reduction in cytopathic effect by neutral red uptake assay
Type: functional, organism-based
TEST READOUT: EC50 (µM)
Give just the number in µM; leave the unit off.

Briefly, EC50 measured for NC(=O)C1(N2CCCCC2)CCN(C(=O)CSc2nc3ccccc3o2)CC1 : 7.4

* * *

PROCEDURE SUMMARY: Selectivity index, ratio of IC50 for cytotoxicity against African green monkey Vero cells assessed as inhibition of cell growth by visual analysis to EC50 for antiviral activity against Yellow fever virus 17D infected in African green monkey Vero assessed as reduction in cytopathic effect
Assay type: toxicity, cell-based
CONDITION SET: read-out: Ratio IC50/EC50
For each record, check the reported selectivity ratio: if it is below 6 write T, else write F.

Incoming: Lab log: compare recorded selectivity ratio with 6; is it strictly lower for Cc1ccc(Cc2nnc(Nc3ccccc3)[nH]c2=O)cc1 ?
Outgoing: T

Incoming: Lab log: compare recorded selectivity ratio with 6; is it strictly lower for Cc1ccc(Cc2nnc(Nc3ccc(F)cc3)[nH]c2=O)cc1 ?
Outgoing: T

Incoming: Lab log: compare recorded selectivity ratio with 6; is it strictly lower for Cc1ccc(Cc2nnc(Nc3ccccc3F)[nH]c2=O)cc1 ?
Outgoing: F

Incoming: Lab log: compare recorded selectivity ratio with 6; is it strictly lower for COc1ccccc1Nc1nnc(Cc2ccc(C)cc2)c(=O)[nH]1 ?
Outgoing: F

Incoming: Lab log: compare recorded selectivity ratio with 6; is it strictly lower for COc1ccc(Nc2nnc(Cc3ccc(C)cc3)c(=O)[nH]2)c(OC)c1 ?
Outgoing: F

Incoming: Lab log: compare recorded selectivity ratio with 6; is it strictly lower for Cc1ccc(Cc2nnc(Nc3cccc(F)c3)[nH]c2=O)cc1 ?
Outgoing: F

* * *

Provide the recorded selectivity ratio for the entries that follow.
PROCEDURE SUMMARY: Selectivity index, ratio of CC50 for cytotoxicity against human Huh-7 cells to EC50 for antiviral activity against wild typeYellow fever virus infected in human Huh-7 cells assessed as reduction in virus replication
Type: toxicity, cell-based
CONDITION SET: read-out: Ratio CC50/EC50

Briefly, selectivity ratio measured for NC(=O)c1ncn([C@@H]2O[C@H](CO)[C@@H](O)[C@H]2O)n1 : 58

Briefly, selectivity ratio measured for CC(C)OC(=O)[C@H](C)N[P@](=O)(OC[C@H]1O[C@@H](n2ccc(=O)[nH]c2=O)[C@](C)(F)[C@@H]1O)Oc1ccccc1 : 90

All figures here come from ChEMBL document CHEMBL5321211.
